Assay text: Binary supramolecular self-assembly systems of polymer and target: guest concentration over incubation time (Comparative Example 2)
Format: physicochemical
Test parameters: binary system with 0.5% polymer 103; incubation 3 h
Parameter measured: Concentration of the target in the solution measured after different incubation time (µg/mL)
Express the result in µg/mL but write the number alone.

| Chemical smiles | Value |
| --- | --- |
| O=C(O)[C@H]1O[C@@H](Oc2cc3oc(-c4ccc(O)cc4)cc(=O)c3c(O)c2O)[C@H](O)[C@@H](O)[C@@H]1O | 42.8 |

Entry C=CC[C@@H]1/C=C(\C)C[C@H](C)C[C@H](OC)[C@H]2O[C@@](O)(C(=O)C(=O)N3CCCC[C@H]3C(=O)O[C@H](/C(C)=C/[C@@H]3CC[C@@H](O)[C@H](OC)C3)[C@H](C)[C@@H](O)CC1=O)[C@H](C)C[C@@H]2OC has what Concentration of the target in the solution measured after different incubation time?
58.7
